Source: paper PMC11066147

- System Tested: Plasmodium falciparum heat shock protein 70-1 (PfHsp70-1) (Plasmodium falciparum, UniProt Q8IB24 1-677)
- Assay Text: SPR
Quick reference: Kd of the listed items.
The response must be a number in µM with no trailing unit.

Solved entries (count: 3):
{"columns": ["Binder", "Result Value"],
 "data": [
  ["ALLLMYRR", 0.14],
  ["NRLLTG", 0.181],
  ["ANNNMYRR", 0.0454]
]}

Proceeding to the next binder to report its Kd.
Sure, the documented Kd for NRNNTG is 0.296
